Study Target: HCV NS5B (Hepatitis C virus genotype 1b)
Construct: The protein was expressed with an 18 amino acid C-terminal truncation to enhance the solubility
Sequence (Q9WMX2 2420-2992): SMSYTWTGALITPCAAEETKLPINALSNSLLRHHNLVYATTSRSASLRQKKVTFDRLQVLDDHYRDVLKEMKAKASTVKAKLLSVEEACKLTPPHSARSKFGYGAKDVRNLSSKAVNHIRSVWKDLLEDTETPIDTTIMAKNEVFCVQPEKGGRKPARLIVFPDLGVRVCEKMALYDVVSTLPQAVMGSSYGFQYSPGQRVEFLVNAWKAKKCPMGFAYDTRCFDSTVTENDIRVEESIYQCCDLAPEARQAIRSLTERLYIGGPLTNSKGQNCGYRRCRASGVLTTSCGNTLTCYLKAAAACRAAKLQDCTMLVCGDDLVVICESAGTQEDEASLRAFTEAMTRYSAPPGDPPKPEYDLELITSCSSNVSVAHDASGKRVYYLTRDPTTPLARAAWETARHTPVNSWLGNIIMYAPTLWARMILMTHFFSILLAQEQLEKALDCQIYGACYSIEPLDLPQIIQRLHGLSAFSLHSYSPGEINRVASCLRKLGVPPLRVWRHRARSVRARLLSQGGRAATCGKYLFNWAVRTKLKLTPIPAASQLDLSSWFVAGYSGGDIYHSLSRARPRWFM
Protocol Summary: HCV NS5B RdRp enzyme assay
Measurement Setup: HCV NS5B RdRp genotype 1b
Procedure: HCV NS5B RdRp cloning, expression, and purification. The cDNA encoding the NS5B protein of HCV, genotype 1b, was cloned into the pET21a expression vector. The protein was expressed with an 18 amino acid C-terminal truncation to enhance the solubility. The E. coli competent cell line BL21(DE3) was used for expression of the protein. […] Standard HCV NS5B RdRp enzyme assay. […] Plates were read on a Packard Top Count NXT after >1 hr incubation at room temperature. […]
Quantity Measured: pIC50
Scale: negative log10 of molar concentration, which is what pIC50 denotes.

Task item: pIC50 of CNC(=O)c1c(-c2ccc(Oc3ccc(F)cc3)cc2)oc2ccc(-c3cc(C(=O)NC4(c5ncccn5)CC4)c(OC)cc3C)c(F)c12 on HCV NS5B (Hepatitis C virus genotype 1b)?
Reply: 4.62
